Measured solubility kinetic, listed per entry for reference.
PROTOCOL_NOTES: physchem
EXPERIMENTAL_PARAMETERS: phosphate buffered saline, pH 7.4
Give just the number in µM; leave the unit off.

Clc1ccc(CCNc2cc(-c3ccccc3)nc3ncnn23)cc1; 1

Turning now to a further compound:
What measured solubility kinetic goes with Cc1nc2ccccn2c1C(=O)Nc1ccc(C(C)(C)C)cc1 ?
85

###

Measured solubility kinetic, listed per entry for reference.
PROTOCOL_NOTES: physchem
EXPERIMENTAL_PARAMETERS: phosphate buffered saline, pH 7.4
Give just the number in µM; leave the unit off.

CCc1nc2ccccc2n1CC(O)COc1cc(C)ccc1Cl (stereo unspecified); 1
c1ccc(-c2nc(N3CCCCCC3)nc(-n3ccnc3)n2)cc1; 1
COc1ccc(-c2nc(-c3cccc(NC(=O)Cc4ccc(F)cc4)c3)no2)cc1OC; 102
COc1cc(Nc2ccccc2)ccc1NS(=O)(=O)c1c(C)noc1C; 53
Nc1ccccc1Nc1ccc2c(c1)OCO2; 139

Turning now to a further molecule:
What measured solubility kinetic goes with CC(C)OC(=O)COc1ccc(-c2cnc(N(C)CCc3ccncc3)nc2)cc1 ?
182
